System: Escherichia coli TOP10;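 further: peptides expressed intracellularly from a pBAD plasmid library in pooled LB shake-flask culture, induced with 0.3% L-arabinose, DNA abundance read by NGS, three biological replicates, DESeq2 with apeglm shrinkage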
Experiment: shrunken log2 fold change of peptide-encoding DNA abundance (4.5 h post-induction vs induction); higher = less antimicrobial activity (less host growth inhibition)
Conditions: time post-induction: 4.5 h; library: site-saturation at positions 5, 18, 19, 20
shrunken log2 fold change overview
Measurement Kind: shrunken log2 fold change

Monomer Sequence: RRIRQRPPRLPRPRPRPHFKPRP
Value Reported: -0.332
//
Monomer Sequence: RRIRGRPPRLPRPRPRPHSYPRP
Value Reported: 0.231
//
Monomer Sequence: RRIRARPPRLPRPRPRPTEDPRP
Value Reported: 0.269
//
Monomer Sequence: RRIRNRPPRLPRPRPRPHQVPRP
Value Reported: 0.0294
//
Monomer Sequence: RRIRHRPPRLPRPRPRPNFFPRP
Value Reported: 0.307
//
Monomer Sequence: RRIRSRPPRLPRPRPRPPYFPRP
Value Reported: -0.0285
//
Monomer Sequence: RRIRCRPPRLPRPRPRPPWVPRP
Value Reported: 0.204
//
Monomer Sequence: RRIRCRPPRLPRPRPRPMQGPRP
Value Reported: -0.0484
//
Monomer Sequence: RRIRHRPPRLPRPRPRPNQGPRP
Value Reported: -0.479
//
Monomer Sequence: RRIRARPPRLPRPRPRPQQCPRP
Value Reported: 0.132
//
Monomer Sequence: RRIRCRPPRLPRPRPRPWPKPRP
Value Reported: 0.0772
//
Monomer Sequence: RRIRCRPPRLPRPRPRPEVVPRP
Value Reported: 0.332
//
Monomer Sequence: RRIRFRPPRLPRPRPRPNFWPRP
Value Reported: 0.15
//
Monomer Sequence: RRIRVRPPRLPRPRPRPYADPRP
Value Reported: -0.543
//
Monomer Sequence: RRIRGRPPRLPRPRPRPHRAPRP
Value Reported: 0.108
//
Monomer Sequence: RRIRRRPPRLPRPRPRPCCIPRP
Value Reported: -0.179
//
Monomer Sequence: RRIRWRPPRLPRPRPRPKEYPRP
Value Reported: 0.02
//
Monomer Sequence: RRIRKRPPRLPRPRPRPAFCPRP
Value Reported: 0.422
//
Monomer Sequence: RRIRLRPPRLPRPRPRPDESPRP
Value Reported: 0.148
//
Monomer Sequence: RRIRLRPPRLPRPRPRPCSMPRP
Value Reported: -0.00844
//
Monomer Sequence: RRIRDRPPRLPRPRPRPKNFPRP
Value Reported: -0.174
//
Monomer Sequence: RRIRGRPPRLPRPRPRPWFYPRP
Value Reported: -0.4
//
Monomer Sequence: RRIRLRPPRLPRPRPRPDVEPRP
Value Reported: -0.0825
//
Monomer Sequence: RRIRKRPPRLPRPRPRPWCEPRP
Value Reported: 0.157
//
Monomer Sequence: RRIRQRPPRLPRPRPRPDVMPRP
Value Reported: 0.0589
//
Monomer Sequence: RRIRWRPPRLPRPRPRPVKYPRP
Value Reported: -0.632
